- Test Description: amyloid nucleation score (Sup35N fusion, yeast selection) (log enrichment); library NNK3; higher = more nucleation; inactive = no reads after selection;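 further: zero at mode of non-aggregating sequences after 7 days selection at 30°C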
Value Type: amyloid nucleation score

Worked cases, answers included:
Substance	amyloid nucleation score
HCCFVWERRNACGMVSSWMT	inactive
LKVPSVVNR	inactive
RARNTKLCNLSVCMTMGPEA	inactive
KPLMWESSDNPEGWQLSLLG	-0.79
VIGWKINGGYPERTS	0.239
MCYLSSSDAGDVIPAWC	inactive
LNGSCKCLKELFVCYRSWVN	-0.79
NMVTYTMIWLWMSMAAPS	inactive

Q: Please list amyloid nucleation score recorded for the substance WFYYVM
Ans: inactive

Q: Please list amyloid nucleation score recorded for the substance DLWAIGWGPFRVCSLLPWPL
Ans: inactive

Q: Please list amyloid nucleation score recorded for the substance PVLNAAVHDNFFTADHIRKK
Ans: inactive

Q: Please list amyloid nucleation score recorded for the substance DFWLHCGDK
Ans: inactive

Q: Please list amyloid nucleation score recorded for the substance KYNFNYPEITLAPTYYMSIT
Ans: inactive

Q: Please list amyloid nucleation score recorded for the substance SLDLENILSAE
Ans: inactive

Q: Please list amyloid nucleation score recorded for the substance DVDFPSFAGFMVTISIGIFV
Ans: inactive

Q: Please list amyloid nucleation score recorded for the substance FLSVECLRAMTWCQLLDAGS
Ans: inactive

Q: Please list amyloid nucleation score recorded for the substance FMGFFYNFYVPKLKSSVHNE
Ans: 0.303

====

- Test Description: amyloid nucleation score (Sup35N fusion, yeast selection) (log enrichment); library NNK3; higher = more nucleation; inactive = no reads after selection
Value Type: amyloid nucleation score

Residue Codes	Value Type	Recorded Result
GSGEVWWVGCRTFFKTG	amyloid nucleation score	inactive
WRVLKADDYFFFWWASCFAY	amyloid nucleation score	inactive
RVIRNQSVRTPP	amyloid nucleation score	inactive
VEVRVYTFF	amyloid nucleation score	2.23
CLRSVDDWFKC	amyloid nucleation score	inactive
WSDQTDRAGHFAVFNLSMGY	amyloid nucleation score	inactive
WPESIFKLRYRSGCCTEVND	amyloid nucleation score	inactive
VSYVCDPLRKIVGTLVRKQV	amyloid nucleation score	0.563

Please turn your attention to the following entry.
Q: Please list amyloid nucleation score recorded for the sequence DQYLTVSHKTTTFRMCPQSG
Ans: inactive

====

- Test Description: amyloid nucleation score (Sup35N fusion, yeast selection) (log enrichment); library NNK2; higher = more nucleation; inactive = no reads after selection
Classification field: rule met = amyloid nucleation score at or over 0.3; rule not met = amyloid nucleation score under 0.3.

Worked examples follow.
Substance	Category
TMLCYYINFRLIVYRSWYKQ	rule not met
TSRLHNFATRIIVCYRLLMQ	rule not met
VMNDLILSKAVLGFELRLWG	rule met
LGSNEPL	rule not met

Next:
Q: Quick check: does IERHIYGMSDAVLGVD have amyloid nucleation score greater than or equal to 0.3?
Ans: rule not met

====

- Test Description: amyloid nucleation score (Sup35N fusion, yeast selection) (log enrichment); library NNK3; higher = more nucleation; inactive = no reads after selection
Value Type: amyloid nucleation score

Residue Codes	amyloid nucleation score
IHDDSKNGK	0.57
TDCELGLLRL	inactive
ISRNRQRSVIPGTTKLCMWV	inactive
SEVFFGSVPNDARDKLNTNP	inactive
YNLSRHQRTSTSLRCKGQSF	0.241

Q: Please list amyloid nucleation score recorded for the sequence LLKIFNNEVKITITFCLLYV
Ans: inactive

Q: Please list amyloid nucleation score recorded for the sequence LFLKSLCCFRICTNFIKVEL
Ans: inactive

Q: Please list amyloid nucleation score recorded for the sequence PYGICNLKF
Ans: inactive

Q: Please list amyloid nucleation score recorded for the sequence MLITSMLCIHV
Ans: inactive
